FYI, the data here is from paper PMC3265476.

# TEST TARGET: GST-GK(p.Ala449Thr) (Homo sapiens, UniProt P35557, A449T)
# Construct: made in house; host or cells: E. coli
# Sequence (P35557 whole entry A449T): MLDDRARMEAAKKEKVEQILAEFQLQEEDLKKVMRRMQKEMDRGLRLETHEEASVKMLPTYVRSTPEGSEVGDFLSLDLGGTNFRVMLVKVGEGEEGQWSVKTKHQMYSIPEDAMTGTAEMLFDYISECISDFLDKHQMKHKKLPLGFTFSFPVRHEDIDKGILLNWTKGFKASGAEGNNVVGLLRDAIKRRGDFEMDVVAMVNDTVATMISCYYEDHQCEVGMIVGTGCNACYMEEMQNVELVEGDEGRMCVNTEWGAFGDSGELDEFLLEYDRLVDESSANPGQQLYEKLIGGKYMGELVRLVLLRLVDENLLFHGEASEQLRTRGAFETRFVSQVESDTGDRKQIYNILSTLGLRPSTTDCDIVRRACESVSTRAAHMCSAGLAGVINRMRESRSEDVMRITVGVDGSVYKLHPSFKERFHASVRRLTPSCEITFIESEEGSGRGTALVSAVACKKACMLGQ
# ASSAY NOTES: Inhibition of glucokinase activity by NAG and MH, Dixon plots
# Type: biochemical
# PROTOCOL CONDITIONS: glucose 1, 1.5 and 2 mM; 180 nM protein; read-out: I50 for NAG
# Protocol: Glucokinase activity was measured spectrophotometrically on a spectrophotometer Uviconxl (Secoman), using an NADP^+-coupled assay with glucose-6-phosphate dehydrogenase, as described previously. The final reaction mixture contained 100 mM Tris pH 7.4, 150 mM KCl, 1 mM MgCl2, 1.4 mM ß-mercaptoethanol, 0.1% BSA, 5 mM ATP-MgCl2, 1 mM NADP^+, and 1 U/ml glucose-6-phosphate dehydrogenase. […] Inhibition by NAG and MH was determined under standard assay conditions with 50 nM glucokinase. […]
pIC50: −log10 of the molar value.
READOUT TYPE: pIC50

test_smiles=CC(=O)N[C@@H]1[C@@H](O)[C@H](O)[C@@H](CO)O[C@H]1O test_result=3.70

* * *

# TEST TARGET: GST-GK(p.Ala449Thr) (Homo sapiens, UniProt P35557, A449T)
# Construct: made in house; host or cells: E. coli
# ASSAY NOTES: Inhibition of glucokinase activity by NAG and MH, Dixon plots
# Format: biochemical
# PROTOCOL CONDITIONS: glucose 1, 1.5 and 2 mM; 180 nM protein; read-out: I50 for MH
# Experimental: Glucokinase activity was measured spectrophotometrically on a spectrophotometer Uviconxl (Secoman), using an NADP^+-coupled assay with glucose-6-phosphate dehydrogenase, as described previously. The final reaction mixture contained 100 mM Tris pH 7.4, 150 mM KCl, 1 mM MgCl2, 1.4 mM ß-mercaptoethanol, 0.1% BSA, 5 mM ATP-MgCl2, 1 mM NADP^+, and 1 U/ml glucose-6-phosphate dehydrogenase. […] Inhibition by NAG and MH was determined under standard assay conditions with 50 nM glucokinase. […]
pIC50: −log10 of the molar value.
READOUT TYPE: pIC50

test_smiles=O=C(CO)[C@@H](O)[C@@H](O)[C@H](O)[C@H](O)CO readout_type=pIC50 test_result=3.17

* * *

# TEST TARGET: GST-GK(p.Gly223Ser) (Homo sapiens, UniProt P35557, G223S)
# Construct: made in house; host or cells: E. coli
# Sequence (P35557 whole entry G223S): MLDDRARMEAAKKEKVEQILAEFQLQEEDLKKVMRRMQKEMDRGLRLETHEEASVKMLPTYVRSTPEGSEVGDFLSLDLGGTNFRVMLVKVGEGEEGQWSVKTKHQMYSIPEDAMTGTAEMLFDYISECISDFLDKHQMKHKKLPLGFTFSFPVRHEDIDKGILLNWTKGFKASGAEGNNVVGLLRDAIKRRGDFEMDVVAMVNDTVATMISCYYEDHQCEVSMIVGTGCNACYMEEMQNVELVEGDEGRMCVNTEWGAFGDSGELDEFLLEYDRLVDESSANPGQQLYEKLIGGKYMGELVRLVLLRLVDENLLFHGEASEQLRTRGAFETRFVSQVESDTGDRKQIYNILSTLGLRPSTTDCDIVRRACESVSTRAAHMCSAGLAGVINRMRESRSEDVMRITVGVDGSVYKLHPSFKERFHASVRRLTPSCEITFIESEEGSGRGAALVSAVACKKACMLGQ
# ASSAY NOTES: Inhibition of glucokinase activity by NAG and MH, Dixon plots
# Format: biochemical
# PROTOCOL CONDITIONS: glucose 12.5, 25 and 50 mM; read-out: I50 for NAG
READOUT TYPE: IC50

test_smiles=CC(=O)N[C@@H]1[C@@H](O)[C@H](O)[C@@H](CO)O[C@H]1O test_target="GST-GK(p.Gly223Ser) (Homo sapiens, UniProt P35557, G223S)" test_result="380 µM"

* * *

# TEST TARGET: Wild-type GST-GK (Homo sapiens, UniProt P35557)
# Construct: made in house; host or cells: E. coli
# Sequence (P35557 whole entry): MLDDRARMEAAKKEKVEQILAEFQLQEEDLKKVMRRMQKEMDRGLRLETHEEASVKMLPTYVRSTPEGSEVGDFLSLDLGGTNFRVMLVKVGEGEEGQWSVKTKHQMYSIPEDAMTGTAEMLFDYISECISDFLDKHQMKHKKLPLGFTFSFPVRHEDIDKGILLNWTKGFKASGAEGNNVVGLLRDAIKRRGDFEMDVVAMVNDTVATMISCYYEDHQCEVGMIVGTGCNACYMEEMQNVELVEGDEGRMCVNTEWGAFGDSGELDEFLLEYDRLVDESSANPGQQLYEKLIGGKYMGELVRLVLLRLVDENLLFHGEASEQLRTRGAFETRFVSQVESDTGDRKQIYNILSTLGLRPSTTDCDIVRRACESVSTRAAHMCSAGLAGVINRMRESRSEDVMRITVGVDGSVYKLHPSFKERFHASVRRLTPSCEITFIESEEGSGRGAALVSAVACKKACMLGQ
# ASSAY NOTES: Inhibition of glucokinase activity by NAG and MH, Dixon plots
# Format: biochemical
# PROTOCOL CONDITIONS: glucose 2, 5 and 8 mM; 50 nM glucokinase; read-out: I50 for MH
# Protocol: Glucokinase activity was measured spectrophotometrically on a spectrophotometer Uviconxl (Secoman), using an NADP^+-coupled assay with glucose-6-phosphate dehydrogenase, as described previously. The final reaction mixture contained 100 mM Tris pH 7.4, 150 mM KCl, 1 mM MgCl2, 1.4 mM ß-mercaptoethanol, 0.1% BSA, 5 mM ATP-MgCl2, 1 mM NADP^+, and 1 U/ml glucose-6-phosphate dehydrogenase. […] Inhibition by NAG and MH was determined under standard assay conditions with 50 nM glucokinase. […]
pIC50: −log10 of the molar value.
READOUT TYPE: pIC50

test_smiles=O=C(CO)[C@@H](O)[C@@H](O)[C@H](O)[C@H](O)CO test_target="Wild-type GST-GK (Homo sapiens, UniProt P35557)" readout_type=pIC50 test_result=2.94

* * *

# TEST TARGET: Wild-type GST-GK (Homo sapiens, UniProt P35557)
# Construct: made in house; host or cells: E. coli
# ASSAY NOTES: Inhibition of glucokinase activity by NAG and MH, Dixon plots
# Assay type: biochemical
# PROTOCOL CONDITIONS: glucose 2, 5 and 8 mM; 50 nM glucokinase; read-out: I50 for NAG
READOUT TYPE: IC50 (µM)

test_smiles=CC(=O)N[C@@H]1[C@@H](O)[C@H](O)[C@@H](CO)O[C@H]1O unit_label=µM test_result=210

* * *

# TEST TARGET: GST-GK(p.Gly223Ser) (Homo sapiens, UniProt P35557, G223S)
# Construct: made in house; host or cells: E. coli
# ASSAY NOTES: Inhibition of glucokinase activity by palmitoyl-CoA, Dixon plots
# Assay type: biochemical
# PROTOCOL CONDITIONS: glucose 12.5, 25 and 50 mM; read-out: I50 for palmitoyl-CoA
READOUT TYPE: IC50 (µM)

molecule="CCCCCCCCCCCCCCCC(=O)SCCNC(=O)CCNC(=O)[C@H](O)C(C)(C)COP(=O)(O)OP(=O)(O)OC[C@H]1O[C@@H](n2cnc3c(N)ncnc32)[C@H](O)[C@@H]1OP(=O)(O)O [palmitoyl-CoA]" test_result=1.42
